Test: Cytotoxicity in mock-infected MT-4 cells (MTT)
Conditions: human
Measurement Type: CC50

response.value for COC(=O)CN(c1ccc(C#N)cc1)c1nc(N)nc(Cc2c(Cl)cccc2Cl)n1 [Compound 39] (field: CC50) = > 20 µM

###

System: mock-infected MT-4 cells
Assay: Cytotoxicity in mock-infected MT-4 cells (MTT)
Method: A rapid, sensitive and automated assay procedure was used for the in vitro evaluation of anti-HIV agents. […] The viability of both HIV- and mock-infected cells was assessed spectrophotometrically via the in situ reduction of 3-(4,5-dimethylthiazol-2-yl)-2,5-diphenyltetrazolium bromide (MTT). […] The percent protection achieved by the compound in HIV-infected cells was calculated by the following formula: [formula] […]
Measurement Type: CC50 (µM)
Record the value in µM, omitting the unit from your answer.

N#Cc1ccc(Nc2nc(Cc3c(Cl)cccc3Cl)nc(NC(CCO)C(N)=O)n2)cc1 (racemic) | 42.3

Then this compound:
Measured on mock-infected MT-4 cells, N#Cc1ccc(Nc2nc(N)nc(C(CC3CC3)c3c(Cl)cccc3Cl)n2)cc1 (racemic) has a documented CC50 of 53.4
